biological target: XCR1 (Homo sapiens); construct: purchased Promega (in-house HiBiT-GPCR construct library, NanoBRET); assay: NanoBRET screen HiBiT-XCR1 in HEK293; format: binding; conditions: XCR1; tracer 1μM
Sequence (P46094 whole entry): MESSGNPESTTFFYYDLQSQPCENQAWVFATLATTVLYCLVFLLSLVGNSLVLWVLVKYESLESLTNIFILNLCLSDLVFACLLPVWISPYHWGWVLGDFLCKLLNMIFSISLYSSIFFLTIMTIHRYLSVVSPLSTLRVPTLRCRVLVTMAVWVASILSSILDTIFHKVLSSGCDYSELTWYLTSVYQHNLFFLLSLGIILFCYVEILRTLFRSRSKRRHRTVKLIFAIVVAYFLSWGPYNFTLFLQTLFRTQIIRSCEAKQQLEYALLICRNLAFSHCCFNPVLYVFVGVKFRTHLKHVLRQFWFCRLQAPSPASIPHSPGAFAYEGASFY
measuredMetric: NanoBRET Fold Response
Simply state the number, no unit and no words.

Worked set:
- CC(C)N(CC[C@H](c1ccccc1)c1cc(CCNC(=O)c2ccc(CNC(=O)CCc3ccc4n3[B-](F)(F)[N+]3=C(c5ccc[nH]5)C=CC3=C4)cc2)ccc1O)C(C)C: 0.95
- O=C(CCOCCOCCOCCOCCNC(=O)CCc1ccc2n1[B-](F)(F)[N+]1=C(c3ccc[nH]3)C=CC1=C2)NCCCN1CCN(C2=Nc3ccccc3Oc3ccc(Cl)cc32)CC1: 0.91
- N#CN=C(NCCCOc1cccc(CN2CCCCC2)c1)NCCNC(=O)CCOCCOCCOCCOCCNC(=O)CCc1ccc2n1[B-](F)(F)[N+]1=C(c3ccc[nH]3)C=CC1=C2: 0.87
- O=C(CCc1ccc2n1[B-](F)(F)[N+]1=C(c3ccc[nH]3)C=CC1=C2)NCCOCCOCCNC(=O)OCCOCCN1CCN(C2=Nc3ccccc3Sc3ccccc32)CC1: 1.04
- Cc1nc2n(c(=O)c1CCN1CCC(c3noc4cc(F)ccc34)CC1)CCCC2OC(=O)NCCOCCOCCOCCOCCNC(=O)CCc1ccc2n1[B-](F)(F)[N+]1=C(c3ccc[nH]3)C=CC1=C2 (stereo not shown): 0.88
- CCCn1c(=O)c2[nH]c(-c3ccc(OCC(=O)NCCNC(=O)CCOCCNC(=O)c4ccc(CNC(=O)CCc5ccc6n5[B-](F)(F)[N+]5=C(c7ccc[nH]7)C=CC5=C6)cc4)cc3)nc2n(CCC)c1=O: 0.98

Note: attention shifts to another entry.
Q: Fill: NanoBRET Fold Response (XCR1 (Homo sapiens)) for this molecule CC(C)N(CC[C@H](c1ccccc1)c1cc(CCNC(=O)CCOCCOCCOCCOCCNC(=O)CCc2ccc3n2[B-](F)(F)[N+]2=C(c4ccc[nH]4)C=CC2=C3)ccc1O)C(C)C
Result: 1.17

// provenance: paper PMC8151276
